# credit: patent US20240376207A1

SYSTEM_TESTED: T1, cynomolgus monkey PVRIG expressed on cells (cynomolgus monkey, UniProt A0A2K5WVV8 1-322)
T1 construct: whole, on cells; also called Monkey PVRIG FACS; cells overexpressing cynomolgus monkey PVRIG
T1 sequence: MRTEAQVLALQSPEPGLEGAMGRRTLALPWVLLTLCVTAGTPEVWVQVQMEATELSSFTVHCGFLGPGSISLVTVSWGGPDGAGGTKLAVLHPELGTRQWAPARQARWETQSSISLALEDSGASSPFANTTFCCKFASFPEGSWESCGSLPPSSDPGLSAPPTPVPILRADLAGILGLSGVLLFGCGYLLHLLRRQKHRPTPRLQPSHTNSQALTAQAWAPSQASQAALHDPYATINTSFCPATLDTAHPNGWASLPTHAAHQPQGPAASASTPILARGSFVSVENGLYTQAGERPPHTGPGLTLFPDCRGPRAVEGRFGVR
METHOD_NOTES: FACS, HEK293 cells overexpressing target
Kindly supply the reported pEC50 values for the records listed here.
When answering, recall that pEC50 equals minus log10 of the concentration in mol/L, and write that number alone.

// returns reported pEC50 for input humanized anti-PVRIG antibody 39H3 (antibody, human IgG4 S228P, F234A L235A, V domains shown) VH: EVQLVESGGGLVQPGGSLRLSCAASGYTFSTDCMGWFRQAPGKGLEGVAHIDSDGIPRYVESVKGRFTISQDHAKNSLYLQMNSLRAEDTAVYYCVVGFKFGDYCAPNDWGQGTMVTVSS
9.46

// returns reported pEC50 for input humanized anti-PVRIG antibody 38H4 (antibody, human IgG4 S228P, F234A L235A, V domains shown) VH: EVQLVESGGGVVQPGGSLRLSCAASPFTYGPSDMAWFRQAPGKGLEGVATISAAGRLTYYTDSVRGRFTISRDNSKNTLYLQMNSLRAEDTAVYYCAADFAGGSSLFADYKYWGQGTMVTVSS
10.02

// returns reported pEC50 for input humanized anti-PVRIG antibody 151H7 (antibody, human IgG4 S228P, F234A L235A, V domains shown) VH: HVQLVESGGGLVQPGGSLRLSCVASASGFTYRPYCMAWFRQAPGKEREAVAGIDIFGGTTYADSVKGRFTASRDNAGFSLYLQMNSLRAEDTAVYYCAAGDSPDGRCPPLGQGLNYWGQGTMVTVSS
9.33

// returns reported pEC50 for input humanized anti-PVRIG antibody 30H2 (antibody, human IgG4 S228P, F234A L235A, V domains shown) VH: EVQLVESGGGLVQPGGSLRLSCAASGFTFSGDCMGWFRQAPGKGLDEGVATIDNAGRIKYADSVKGRFTISRDNAKNSLYLQMNSLRAEDTAVYYCAAGWTFGGQCSPADWGQGTQVTVSS
11.30

// returns reported pEC50 for input humanized anti-PVRIG antibody 30H1 (antibody, human IgG4 S228P, F234A L235A, V domains shown) VH: EVQLVESGGGLVQPGGSLRLSCAASGFTFSGDCMGWFRQAPGKGLEGVATIDNAGRIKYADSVKGRFTISRDNAKNSLYLQMNSLRAEDTAVYYCAAGWTFGGQCSPADWGQGTQVTVSS
9.43

// returns reported pEC50 for input humanized anti-PVRIG antibody 20H2 (antibody, human IgG4 S228P, F234A L235A, V domains shown) VH: EVQLVESGGGLVQPGGSLRLSCAASGFTSRTDCMGWFRQAPGKGLEGVAHIDSDGIPRYVDSVKGRFTISRDNAKNSLYLQMNSLRAEDTAVYYCVVGFKFDEDYCAPNDWGQGTMVTVSS
9.47

// returns reported pEC50 for input humanized anti-PVRIG antibody 20H3 (antibody, human IgG4 S228P, F234A L235A, V domains shown) VH: EVQLVESGGGLVQPGGSLRLSCAASGYTFSTDCMGWFRQAPGKGLEGVAHIDSDGIPRYVDSVKGRFTISQDHAKNSLYLQMNSLRAEDTAVYYCVVGFKFDEDYCAPNDWGQGTMVTVSS
8.82

// returns reported pEC50 for input humanized anti-PVRIG antibody 39H5 (antibody, human IgG4 S228P, F234A L235A, V domains shown) VH: EVQLVESGGGLVQPGGSLRLSCAASGYTSRTDCMGWFRQAPGKEREGVAHIDSDGIPRYVESVKGRFTISQDHAKNSLYLQMNSLRAEDTAVYYCVVGFKFGDYCAPNDWGQGTMVTVSS
9.68

// returns reported pEC50 for input humanized anti-PVRIG antibody 39H4 (antibody, human IgG4 S228P, F234A L235A, V domains shown) VH: EVQLVESGGGLVQPGGSLRLSCAASGYTSRTDCMGWFRQAPGKGLEGVAHIDSDGIPRYVESVKGRFTISQDHAKNSLYLQMNSLRAEDTAVYYCVVGFKFGDYCAPNDWGQGTMVTVSS
11.22

// returns reported pEC50 for input humanized anti-PVRIG antibody 39H1 (antibody, human IgG4 S228P, F234A L235A, V domains shown) VH: EVQLVESGGGLVQPGGSLRLSCAASGFTFSTDCMGWFRQAPGKGLEGVAHIDSDGIPRYVESVKGRFTISRDNAKNSLYLQMNSLRAEDTAVYYCVVGFKFGDYCAPNDWGQGTMVTVSS
9.60

// returns reported pEC50 for input humanized anti-PVRIG antibody 151H4 (antibody, human IgG4 S228P, F234A L235A, V domains shown) VH: EVQLVESGGGLVQPGGSLRLSCVASASGFTYRPYCMAWFRQAPGKGLEAVAGIDIFGGTTYADSVKGRFTISRDNAKNSLYLQMNSLRAEDTAVYYCAAGDSPDGRCPPLGQGLNYWGQGTMVTVSS
10.46

// returns reported pEC50 for input humanized anti-PVRIG antibody 39H2 (antibody, human IgG4 S228P, F234A L235A, V domains shown) VH: EVQLVESGGGLVQPGGSLRLSCAASGFTSRTDCMGWFRQAPGKGLEGVAHIDSDGIPRYVESVKGRFTISRDNAKNSLYLQMNSLRAEDTAVYYCVVGFKFGDYCAPNDWGQGTMVTVSS
10.72

// returns reported pEC50 for input humanized anti-PVRIG antibody 20H5 (antibody, human IgG4 S228P, F234A L235A, V domains shown) VH: EVQLVESGGGLVQPGGSLRLSCAASGYTSRTDCMGWFRQAPGKEHEGVAHIDSDGIPRYVDSVKGRFTISQDHAKNSLYLQMNSLRAEDTAVYYCVVGFKFDEDYCAPNDWGQGTMVTVSS
11.15

// returns reported pEC50 for input humanized anti-PVRIG antibody 151H9 (antibody, human IgG4 S228P, F234A L235A, V domains shown) VH: HVQLVESGGGLVQPGGSLRLSCVASASGFTYRPYCMAWFRQAPGKGLEAVAGIDIFGGTTYADSVKGRFTASRDNAGFSLYLQMNSLRAEDTAVYYCAAGDSPDGRCPPLGQGLNYWGQGTMVTVSS
8.40

// returns reported pEC50 for input humanized anti-PVRIG antibody 20H4 (antibody, human IgG4 S228P, F234A L235A, V domains shown) VH: EVQLVESGGGLVQPGGSLRLSCAASGYTSRTDCMGWFRQAPGKGLEGVAHIDSDGIPRYVDSVKGRFTISQDHAKNSLYLQMNSLRAEDTAVYYCVVGFKFDEDYCAPNDWGQGTMVTVSS
9.23
